Ref: patent US9738660B2

Biological target: AURKA (Homo sapiens)
Sequence (O14965 whole entry): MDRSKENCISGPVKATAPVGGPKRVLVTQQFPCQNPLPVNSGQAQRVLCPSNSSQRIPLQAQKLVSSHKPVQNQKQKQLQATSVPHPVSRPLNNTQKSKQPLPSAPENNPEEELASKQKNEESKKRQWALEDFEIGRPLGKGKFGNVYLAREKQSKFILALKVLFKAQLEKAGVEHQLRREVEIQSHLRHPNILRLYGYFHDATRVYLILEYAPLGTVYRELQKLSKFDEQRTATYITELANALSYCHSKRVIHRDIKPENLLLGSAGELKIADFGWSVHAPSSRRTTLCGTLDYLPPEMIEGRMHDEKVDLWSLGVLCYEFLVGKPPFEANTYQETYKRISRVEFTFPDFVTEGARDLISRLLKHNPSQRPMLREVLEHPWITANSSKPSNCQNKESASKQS
Assay: Kinase Profiler, residual kinase activity
Type: biochemical
Conditions: AURKA; inhibitor at 500 nM; read-out: percentage of the remaining kinase activity
value_type: remaining activity at 0.5 µM

molecule	observed_measurement
COC1C(N(C)Cc2ccc(-c3ccccc3)cc2)CC2OC1(C)n1c3ccccc3c3c4c(c5c6ccccc6n2c5c31)C(=O)NC4 (stereo not drawn) [Compound 9]	11.2%
COC1C(N(C)C(=O)C(N)Cc2c[nH]cn2)CC2OC1(C)n1c3ccccc3c3c4c(c5c6ccccc6n2c5c31)C(=O)NC4 (stereo not drawn) [Compound 1]	2.1%
COC1C(N(C)C(=O)C(N)Cc2ccc(OC(C)(C)C)cc2)CC2OC1(C)n1c3ccccc3c3c4c(c5c6ccccc6n2c5c31)C(=O)NC4 (stereo not drawn) [Compound 4]	19.7%

----------
The entries below are paired with their reported remaining activity at 0.5 µM.
Target: EGFR (Homo sapiens, UniProt P00533)
Construct: purchased Research Biology Corp. (http://www.reactionbiology.com)
Sequence (P00533 25-1210): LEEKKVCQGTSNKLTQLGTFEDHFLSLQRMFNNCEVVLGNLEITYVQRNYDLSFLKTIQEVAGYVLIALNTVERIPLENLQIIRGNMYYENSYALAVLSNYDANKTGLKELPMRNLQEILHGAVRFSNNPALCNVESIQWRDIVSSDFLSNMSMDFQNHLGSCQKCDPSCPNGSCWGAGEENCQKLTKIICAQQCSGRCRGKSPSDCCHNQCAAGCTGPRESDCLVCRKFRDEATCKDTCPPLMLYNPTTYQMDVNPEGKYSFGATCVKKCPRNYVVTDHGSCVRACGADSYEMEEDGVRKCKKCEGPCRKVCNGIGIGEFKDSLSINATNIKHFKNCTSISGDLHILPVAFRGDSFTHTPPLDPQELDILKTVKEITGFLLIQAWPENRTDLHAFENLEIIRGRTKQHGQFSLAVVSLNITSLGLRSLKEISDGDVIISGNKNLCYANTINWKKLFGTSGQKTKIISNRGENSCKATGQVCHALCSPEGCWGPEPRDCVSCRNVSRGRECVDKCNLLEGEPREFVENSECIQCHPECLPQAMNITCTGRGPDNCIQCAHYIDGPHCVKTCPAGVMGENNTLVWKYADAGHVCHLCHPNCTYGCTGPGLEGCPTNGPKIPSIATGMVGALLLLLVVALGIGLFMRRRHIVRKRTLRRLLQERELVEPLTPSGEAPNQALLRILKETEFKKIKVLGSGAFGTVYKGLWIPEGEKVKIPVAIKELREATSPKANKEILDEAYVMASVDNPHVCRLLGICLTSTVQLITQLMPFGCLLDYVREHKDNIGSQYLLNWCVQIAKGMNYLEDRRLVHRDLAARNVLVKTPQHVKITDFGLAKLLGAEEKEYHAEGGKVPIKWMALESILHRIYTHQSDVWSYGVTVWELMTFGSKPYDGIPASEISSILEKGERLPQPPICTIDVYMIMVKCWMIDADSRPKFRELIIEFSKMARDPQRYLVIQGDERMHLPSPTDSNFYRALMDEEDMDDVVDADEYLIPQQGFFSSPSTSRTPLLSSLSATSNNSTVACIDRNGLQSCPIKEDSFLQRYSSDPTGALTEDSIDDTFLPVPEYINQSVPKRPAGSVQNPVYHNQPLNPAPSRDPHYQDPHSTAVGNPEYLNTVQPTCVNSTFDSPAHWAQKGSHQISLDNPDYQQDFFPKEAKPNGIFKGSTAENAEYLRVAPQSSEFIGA
Test: Kinase Profiler, residual kinase activity
Format: biochemical
Conditions: EGFR; inhibitor at 500 nM; read-out: percentage of the remaining kinase activity

molecule	measured_on	remaining activity at 0.5 µM / %
COC1C(N(C)C(=O)C(N)Cc2c[nH]cn2)CC2OC1(C)n1c3ccccc3c3c4c(c5c6ccccc6n2c5c31)C(=O)NC4 (centres unmarked) [Compound 1]	EGFR (Homo sapiens, UniProt P00533)	30.5
COC1C(N(C)C(=O)C(N)CCC(=O)OC(C)(C)C)CC2OC1(C)n1c3ccccc3c3c4c(c5c6ccccc6n2c5c31)C(=O)NC4 (centres unmarked) [Compound 6]	EGFR (Homo sapiens, UniProt P00533)	108
COC1C(N(C)C(=O)C(N)Cc2ccc(OC(C)(C)C)cc2)CC2OC1(C)n1c3ccccc3c3c4c(c5c6ccccc6n2c5c31)C(=O)NC4 (centres unmarked) [Compound 4]	EGFR (Homo sapiens, UniProt P00533)	108
COC1C(N(C)C(=O)C(N)Cc2cn(C(=O)OC(C)(C)C)c3ccccc23)CC2OC1(C)n1c3ccccc3c3c4c(c5c6ccccc6n2c5c31)C(=O)NC4 (centres unmarked) [Compound 2]	EGFR (Homo sapiens, UniProt P00533)	110
COC1C(N(C)C(=O)C(N)CCC(=O)O)CC2OC1(C)n1c3ccccc3c3c4c(c5c6ccccc6n2c5c31)C(=O)NC4 (centres unmarked) [Compound 7]	EGFR (Homo sapiens, UniProt P00533)	82.2

----------
Molecular target: MAP3K7 (Homo sapiens, UniProt O43318)
Construct: purchased Research Biology Corp. (http://www.reactionbiology.com)
Sequence (O43318 1-303 limits assumed): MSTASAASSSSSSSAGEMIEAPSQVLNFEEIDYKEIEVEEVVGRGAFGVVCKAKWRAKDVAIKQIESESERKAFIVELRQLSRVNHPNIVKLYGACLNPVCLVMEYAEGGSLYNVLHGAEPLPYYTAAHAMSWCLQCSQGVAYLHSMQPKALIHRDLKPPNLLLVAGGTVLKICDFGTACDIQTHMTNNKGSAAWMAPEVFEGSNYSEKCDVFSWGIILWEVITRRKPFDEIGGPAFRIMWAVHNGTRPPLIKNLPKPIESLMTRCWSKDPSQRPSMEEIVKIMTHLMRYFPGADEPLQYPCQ
Assay: Kinase Profiler, residual kinase activity
Format: biochemical
Settings: MAP3K7; inhibitor at 500 nM; read-out: percentage of the remaining kinase activity
value_type: remaining activity at 0.5 µM (%)

>>> df
                                   molecule                            measured_on  unit_descriptor  observed_measurement
0  COC1C(N(C)Cc2ccc(-c3ccccc3)cc2)CC2OC1(C)n1c3ccccc3c3c4c(c5c6ccccc6n2c5c31)C(=O)NC4 (stereo not drawn)  MAP3K7 (Homo sapiens, UniProt O43318)                %                  69.4
1  COC1C(N(C)C(=O)C(N)Cc2cn(C(=O)OC(C)(C)C)c3ccccc23)CC2OC1(C)n1c3ccccc3c3c4c(c5c6ccccc6n2c5c31)C(=O)NC4 (stereo not drawn)  MAP3K7 (Homo sapiens, UniProt O43318)                %                   103
2  COC1C(N(C)C(=O)C(N)Cc2ccc(O)cc2)CC2OC1(C)n1c3ccccc3c3c4c(c5c6ccccc6n2c5c31)C(=O)NC4 (stereo not drawn)  MAP3K7 (Homo sapiens, UniProt O43318)                %                  70.7
3  COC1C(N(C)C(=O)C(N)Cc2ccc(OC(C)(C)C)cc2)CC2OC1(C)n1c3ccccc3c3c4c(c5c6ccccc6n2c5c31)C(=O)NC4 (stereo not drawn)  MAP3K7 (Homo sapiens, UniProt O43318)                %                  98.6
4  COC1C(N(C)C(=O)C(N)Cc2c[nH]cn2)CC2OC1(C)n1c3ccccc3c3c4c(c5c6ccccc6n2c5c31)C(=O)NC4 (stereo not drawn)  MAP3K7 (Homo sapiens, UniProt O43318)                %                  37.5
5  COC1C(N(C)C(=O)C(N)CCC(=O)O)CC2OC1(C)n1c3ccccc3c3c4c(c5c6ccccc6n2c5c31)C(=O)NC4 (stereo not drawn)  MAP3K7 (Homo sapiens, UniProt O43318)                %                  27.8
